Where do the numbers come from? From the supplement of paper PMC8728848.

Assay system: Man(a1-2)Man(a1-6)[Man(a1-3)]Man(a1-6)[Man(a1-2)Man(a1-2)Man(a1-3)]Man(b1-4)GlcNAc(b1-4)GlcNAc
Method: glycan array binding signal (z-score within array); higher = stronger binding
Stated conditions: glycan notation: IUPAC condensed, linker removed
The full list was thinned out, with the strongest signals kept by preference.
Assay endpoint: glycan array binding signal (z-score)

The recorded glycan array binding signal (z-score) for entry AMA (Arum maculatun) (protein) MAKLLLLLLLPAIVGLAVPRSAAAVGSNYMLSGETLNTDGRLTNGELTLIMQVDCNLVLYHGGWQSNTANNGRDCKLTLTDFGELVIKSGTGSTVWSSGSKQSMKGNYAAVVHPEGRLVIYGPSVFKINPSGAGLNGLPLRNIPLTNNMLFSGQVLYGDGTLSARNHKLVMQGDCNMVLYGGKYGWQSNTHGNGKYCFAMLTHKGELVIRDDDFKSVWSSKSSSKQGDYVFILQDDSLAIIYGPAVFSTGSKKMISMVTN equals 4.91
